system: P388 leukemia ip, CD2F1 mice, survival T/C; assay: NCI In Vivo Anticancer Drug Screen. Data for tumor model P388 Leukemia (intraperitoneal) in CD2F1 (CDF1) mice; conditions: endpoint: median survival time; dose: 25.0 mg/kg/injection; schedule: Q01DX009 (ip); vehicle: Klucel (hydroxypropylcellulose) (HPC); higher = longer survival
Inconclusive results and toxic doses are left out.
Endpoint: T/C

Here's what some known entries look like.
Compound	Assayed system	Test result
O=C(/C=C\c1ccc(Cl)cc1)c1ccccc1	P388 leukemia ip, CD2F1 mice, survival T/C	100 % of control
CCOC(=O)Nc1nc2ccc(NC(C)=O)cc2s1	P388 leukemia ip, CD2F1 mice, survival T/C	102 % of control
Cn1c(=O)c2c(nc(Br)n2C)n(C)c1=O	P388 leukemia ip, CD2F1 mice, survival T/C	94 % of control
CSC(=S)Nc1nc2ccc(Cl)cc2s1	P388 leukemia ip, CD2F1 mice, survival T/C	88 % of control
O=C1CC(c2ccccc2)Oc2cc(O)cc(O)c21 (stereo unspecified)	P388 leukemia ip, CD2F1 mice, survival T/C	98 % of control

Form field: reported T/C of `O=C(N/N=c1/sc2ccccc2n1Cc1ccccc1)c1ccncc1` 89 % of control

Name the recorded T/C for `Cc1ccc2nc(N(C)C)cc(N(C)C)c2c1` . 103 % of control

T/C for `O=[N+]([O-])c1c(N2CCN(CCO)CC2)nc2ccccn12` ? 91 % of control

* * *

tested on: P388 leukemia ip, CD2F1 mice, survival T/C; test: NCI In Vivo Anticancer Drug Screen. Data for tumor model P388 Leukemia (intraperitoneal) in CD2F1 (CDF1) mice; conditions: endpoint: median survival time; dose: 100.0 mg/kg/injection; schedule: Q01DX009 (ip); vehicle: Klucel (hydroxypropylcellulose) (HPC); higher = longer survival
Inconclusive results and toxic doses are left out.
# maps each entry to its T/C

Checklist item: T/C tested on P388 leukemia ip, CD2F1 mice, survival T/C, entry `Cc1cc(C)c2c(c1)/C(=C/C(=O)c1ccccc1)C(=O)N2` , value? 95 % of control

Given the entry Nc1ncnc2c1nnn2C1OC(CO)C(O)C1O (configuration not stated) , what T/C was observed with P388 leukemia ip, CD2F1 mice, survival T/C? 100 % of control

# query: T/C | item `CC(=O)CC(=O)C(F)(F)F.CC(=O)CC(=O)C(F)(F)F.CC(=O)CC(=O)C(F)(F)F.[Sm]` | system: P388 leukemia ip, CD2F1 mice, survival T/C 94 % of control

Provide value of T/C for this record tested with P388 leukemia ip, CD2F1 mice, survival T/C: `COc1ccc(Cc2nnc(C)c3c(C)[nH]nc23)cc1OC` 92 % of control

Observed T/C on P388 leukemia ip, CD2F1 mice, survival T/C for COc1ccc2c(c1)CCC1C2CCC2(C)C1CCC2(O)CCOS(=O)(=O)c1ccc(C)cc1 (configuration not stated) , please. 97 % of control

# get_value(readout= T/C, system= P388 leukemia ip, CD2F1 mice, survival T/C) for CC(C)N1CCC(OC(=O)Nc2ccccc2)C1 (configuration not stated) 99 % of control

Notebook entry, P388 leukemia ip, CD2F1 mice, survival T/C assay: T/C of `N#Cc1ccc(NC(=O)CCCC(=O)Nc2ccc(C#N)c(C#N)c2)cc1C#N` = ? 94 % of control

What measured T/C is associated with `CS(=O)(=O)/C=C/c1cc2ccccc2[nH]1` on P388 leukemia ip, CD2F1 mice, survival T/C? 101 % of control

// fetch P388 leukemia ip, CD2F1 mice, survival T/C T/C for ClC1=CCCC(C(Br)Br)C1 (configuration not stated) 100 % of control

// fetch P388 leukemia ip, CD2F1 mice, survival T/C T/C for `c1ccc(N2C3Sc4ncccc4C2Sc2ncccc23)cc1` 94 % of control

Notebook: pull reported T/C for P388 leukemia ip, CD2F1 mice, survival T/C, entry `CCCCCCCCCCCCOC(=O)c1ccc(O)cc1` 94 % of control

Item: `Oc1ccc(Cl)cc1C1c2ccccc2Oc2ccccc21` Test system: P388 leukemia ip, CD2F1 mice, survival T/C Read-out: T/C Value: ? 108 % of control

// data source = PubChem BioAssay AID330
